Listing of entries alongside the reported Fold change in RNA expression between the ON state and the OFF state.
test system: Renilla luciferase RNA; assay: Barcoded aptazyme variant library screen: un-cleaved Renilla luciferase RNA by barcode read counts, HEK293-T cells; type: cell-based; conditions: un-cleaved Renilla luciferase RNA by barcode read counts; with 1 mM theophylline (ON) over without theophylline (OFF); HEK293-T cells; triplicate
endpoint label: Fold change in RNA expression between the ON state and the OFF state

molecule | result number
RA405 (nucleic acid, expressed or natural sequence) DNA: GCGCGTCCTGGATTCGCGGAAACGCGTACGAGAATACCAGCATCGTCTTGATGCCCTTGGAAGTCTCGCATCCAGCTGACGAGTCCCAAATAGGACGAAACGCGC | 0.7
RA456 (nucleic acid, expressed or natural sequence) DNA: GCGCGTCCTGGATTCGCGGAAACGCGTACATCCAGCTGACGAGTCCCAAATACCGGAATACCAGCATCGTCTTGATGCCCTTGGAAGTCCGGGGACGAAACGCGC | 0.5

Every entry's value here was drawn from patent US20260167959A1.
